All figures here come from the supplement of paper PMC9938120.

test system: FMOC22 (patient-derived mucinous ovarian cancer cells); experiment: drug sensitivity score (DSS3, normalised partial AUC of % inhibition dose-response) (DSS (score)); higher = more sensitive (stronger inhibition of viability); extreme values may be limits of the assay; settings: 72 h; library: FO5A; assay format: 2D, 384-well, CellTiter-Glo
Reported drug sensitivity score values are given for each entry in this list.
MEASURE NAME: drug sensitivity score

{"COMPOUND": "Nc1ccccc1NC(=O)c1ccc(CNc2nccc(-c3cccnc3)n2)cc1 [Mocetinostat]", "ENDPOINT RESULT": 8}
{"COMPOUND": "CC(C)(O)CNc1nc(Nc2ccnc(C(F)(F)F)c2)nc(-c2cccc(C(F)(F)F)n2)n1 [Enasidenib]", "ENDPOINT RESULT": 0}
{"COMPOUND": "S=c1[nH]cnc2nc[nH]c12 [Mercaptopurine]", "ENDPOINT RESULT": 0}
{"COMPOUND": "CC(=O)O[C@H]1C(=O)[C@@]2(C)[C@H]([C@H](OC(=O)c3ccccc3)[C@]3(O)C[C@H](OC(=O)[C@H](O)[C@@H](NC(=O)c4ccccc4)c4ccccc4)C(C)=C1C3(C)C)[C@]1(OC(C)=O)CO[C@@H]1C[C@@H]2O [Paclitaxel]", "ENDPOINT RESULT": 12.5}
{"COMPOUND": "Nc1cc(F)ccc1NC(=O)/C=C/c1cnn(C/C=C/c2ccccc2)c1 [RGFP966]", "ENDPOINT RESULT": 1.4}
{"COMPOUND": "CC[C@@H](C(=O)[C@@H](C)[C@@H](O)[C@H](C)[C@@H]1O[C@@H]([C@@H](CC)C(=O)O)CC[C@@H]1C)[C@H]1O[C@]2(C=C[C@@H](O)[C@]3(CC[C@@](C)([C@H]4CC[C@](O)(CC)[C@H](C)O4)O3)O2)[C@H](C)C[C@@H]1C [Salinomycin]", "ENDPOINT RESULT": 10.6}
{"COMPOUND": "C[C@H](Nc1ncnc2[nH]cnc12)c1cc2ccc(F)cc2nc1-c1ccccn1 [AMG319]", "ENDPOINT RESULT": 0}
{"COMPOUND": "CCNc1nc(Nc2cc(F)c(C(=O)N3CCOCC3)cc2OC)ncc1C(F)(F)F [GNE-7915]", "ENDPOINT RESULT": 0}
{"COMPOUND": "O=C(Nc1cccc(Nc2ncc(Br)c(NCCc3cnc[nH]3)n2)c1)N1CCCC1 [BX-912]", "ENDPOINT RESULT": 2.4}
{"COMPOUND": "C[C@H]1CNCCCN1S(=O)(=O)c1cccc2cncc(F)c12 [Ripasudil]", "ENDPOINT RESULT": 0}
{"COMPOUND": "Nc1cc(C(F)(F)F)c(-c2cc(N3CCOCC3)nc(N3CCOCC3)n2)cn1 [Buparlisib]", "ENDPOINT RESULT": 6.3}
{"COMPOUND": "CCCCC(=O)OCC(=O)[C@]1(O)Cc2c(O)c3c(c(O)c2[C@@H](O[C@H]2C[C@H](NC(=O)C(F)(F)F)[C@H](O)[C@H](C)O2)C1)C(=O)c1c(OC)cccc1C3=O [Valrubicin]", "ENDPOINT RESULT": 7.8}
{"COMPOUND": "Cc1ccc(=O)n(-c2ccccc2)c1 [Pirfenidone]", "ENDPOINT RESULT": 0}
{"COMPOUND": "O=C(Nc1ccc2[nH]nc(-c3ccncc3)c2c1)[C@@H]1CCN(CC(=O)N2CCN(c3ccc(-c4ncccn4)cc3)CC2)C1", "ENDPOINT RESULT": 11.8}
{"COMPOUND": "Cc1cc(C)c(CNC(=O)c2cc(-c3ccc(CN4CCOCC4)cc3)cc3c2cnn3C2CCCC2)c(=O)[nH]1 [EPZ-5687]", "ENDPOINT RESULT": 0.6}
{"COMPOUND": "CCc1c2c(nc3ccc(O)cc13)-c1cc3c(c(=O)n1C2)COC(=O)[C@]3(O)CC [SN-38]", "ENDPOINT RESULT": 31}
{"COMPOUND": "COC(=O)N[C@@H](C)CNc1nccc(-c2cn(C(C)C)nc2-c2cc(Cl)cc(NS(C)(=O)=O)c2F)n1 [Encorafenib]", "ENDPOINT RESULT": 0}
{"COMPOUND": "CO[C@H](C(=O)[C@@H](O)[C@@H](C)O)[C@@H]1Cc2cc3cc(O[C@H]4C[C@@H](O[C@@H]5C[C@@H](O)[C@H](O)[C@@H](C)O5)[C@H](O)[C@@H](C)O4)c(C)c(O)c3c(O)c2C(=O)[C@H]1O[C@H]1C[C@@H](O[C@@H]2C[C@@H](O)[C@@H](O[C@@H]3C[C@](C)(O)[C@H](O)[C@@H](C)O3)[C@@H](C)O2)[C@H](O)[C@@H](C)O1 [Plicamycin]", "ENDPOINT RESULT": 5.1}
{"COMPOUND": "CC1(C)CNc2cc(NC(=O)c3cccnc3NCc3ccncc3)ccc21 [Motesanib]", "ENDPOINT RESULT": 0}
{"COMPOUND": "CC(C)NC[C@@H](C(=O)N1CCN(c2ncnc3c2[C@H](C)C[C@H]3O)CC1)c1ccc(Cl)cc1 [Ipatasertib]", "ENDPOINT RESULT": 2.1}
{"COMPOUND": "COc1cc2c(NC3CCN(C(C)C)CC3)nc(N3CCC(F)(F)CC3)nc2cc1OCCCN1CCCC1 [UNC0642]", "ENDPOINT RESULT": 0.1}
{"COMPOUND": "Clc1ccc(Nc2nnc(Cc3ccncc3)c3ccccc23)cc1 [Vatalanib]", "ENDPOINT RESULT": 0}
